Some molecules, each annotated with its measured GI50.
Test system: SNB-19
Test: NCI tumour cell line growth inhibition, 48 h
Calls of active or inactive are those of the source. Cut-off read from the data, not from the text of the source: active = GI50 up to about 1.1 µM and inactive = higher.

{"columns": ["Molecule", "Reported property", "Measurement"],
 "data": [
  ["COC(=O)C1(SC)C2CCC3C2CCC31 (stereo unspecified)", "GI50", "> 100 µM (inactive)"]
]}

### Prompt Report measured GI50 on SNB-19; entry: CCOc1cn(C2OC(CO)C(O)C2O)c(=O)[nH]c1=O (stereo unspecified)
### Response > 100 µM (inactive)

* * *

Test system: CAKI-1
Test: NCI tumour cell line growth inhibition, 48 h
Calls of active or inactive are those of the source. Rule as the data show it: active = GI50 up to about 1.1 µM and inactive = higher.
Reported property: GI50

Worked examples follow.
{"columns": ["Molecule", "GI50"],
 "data": [
  ["COC(=O)C1C(OS(=O)(=O)O)CCC2CN3CCc4c([nH]c5ccccc45)C3CC21 (stereo unspecified)", "> 100 µM (inactive)"],
  ["N#CC(C#N)/N=C/c1ccncc1", "> 100 µM (inactive)"],
  ["O=C(c1cc(Cl)ccc1Cl)N1CCN(C(=O)c2cc(Cl)ccc2Cl)CC1", "97.9 µM (inactive)"],
  ["CCCC(Sc1ccccc1)P(=O)(c1ccccc1)c1ccccc1 (stereo unspecified)", "42.3 µM (inactive)"],
  ["COc1cccc(N2C(=O)C3CC(CC(C)(C)C)c4c([nH]c5ccccc45)C3C2=O)c1 (stereo unspecified)", "> 10 µM (inactive)"]
]}

### Prompt Report measured GI50 on CAKI-1; entry: CC1=C(CO)C(=O)O[C@@H]([C@@H](C)[C@H]2CC[C@H]3[C@@H]4C[C@H]5O[C@]56[C@@H](O)C=CC(=O)[C@]6(C)[C@H]4CC[C@]23C)C1
### Response 0.463 µM (active)

### Prompt Report measured GI50 on CAKI-1; entry: COc1ccc(C2(CN(C)C)COc3cc(OC)c(OC)cc3C2=O)cc1OC (stereo unspecified)
### Response 42.1 µM (inactive)

### Prompt Report measured GI50 on CAKI-1; entry: O=C(/C=C/c1ccccc1)c1ccc(NCc2nc3ccccc3[nH]2)cc1
### Response 10.1 µM (inactive)

### Prompt Report measured GI50 on CAKI-1; entry: O=C(CC1(O)C(=O)Nc2c(Cl)ccc(Cl)c21)c1ccc(Cl)cc1Cl (stereo unspecified)
### Response 20.3 µM (inactive)

### Prompt Report measured GI50 on CAKI-1; entry: CS(=O)(=O)c1c(N)c2nc(Cl)cn2c2nc3ccccc3nc12
### Response > 100 µM (inactive)

### Prompt Report measured GI50 on CAKI-1; entry: CC1(C)OC[C@@H](C[C@H](O)COCc2ccccc2)O1
### Response > 100 µM (inactive)

### Prompt Report measured GI50 on CAKI-1; entry: CCOC(=O)C1=CN=C2C(=O)N(c3ccccc3)N(C)C2(C)C1=N (stereo unspecified)
### Response > 100 µM (inactive)

### Prompt Report measured GI50 on CAKI-1; entry: Cc1cc(O)c2c(c1)CC(O)C1=C2C(=O)c2c(O)ccc(OC3CC(O)C(OC4CC(OC5CCC(O)C(C)O5)C(O)C(C)O4)C(C)O3)c2C1=O (stereo unspecified)
### Response 1.71 µM (inactive)

### Prompt Report measured GI50 on CAKI-1; entry: CC1CN(CCO)CCN1c1ccccc1 (stereo unspecified)
### Response > 100 µM (inactive)

### Prompt Report measured GI50 on CAKI-1; entry: O=C1CC[C@@H](NC(=O)Cc2ccccc2)C(=O)N1
### Response > 100 µM (inactive)

### Prompt Report measured GI50 on CAKI-1; entry: CCOC(=O)CN(Cn1cncn1)Cn1cncn1
### Response 56 µM (inactive)

### Prompt Report measured GI50 on CAKI-1; entry: C=CCC(OCCOCC)c1cc(OCCOCC)ccc1OC (stereo unspecified)
### Response > 100 µM (inactive)

### Prompt Report measured GI50 on CAKI-1; entry: O=c1c2nc(-c3ccccc3)oc2n(-c2ccccc2)c(=O)n1-c1ccccc1
### Response 8.18 µM (inactive)

### Prompt Report measured GI50 on CAKI-1; entry: COC(=O)CCCC(=O)NC1=C(Nc2ccccc2)C(=O)c2ccccc2C1=O
### Response 20.1 µM (inactive)

### Prompt Report measured GI50 on CAKI-1; entry: CCOc1ccc(N(CC(=O)N2CC(=O)Nc3cc(C)c(C)cc32)C(C)=O)cc1
### Response > 100 µM (inactive)

### Prompt Report measured GI50 on CAKI-1; entry: COC(=O)c1c(C#N)c(N)nc2c1CCC2
### Response > 100 µM (inactive)

* * *

Test system: OVCAR-8
Test: NCI tumour cell line growth inhibition, 48 h
Active and inactive are the calls of the source. Rule as the data show it: active = GI50 up to about 1.1 µM and inactive = higher.
Reported property: GI50

{"columns": ["Compound", "GI50"],
 "data": [
  ["CC(=O)/N=C1\\NC(=O)/C(=C/c2ccccc2Cl)N1C", "> 100 µM (inactive)"],
  ["CC(=O)OCCOCNC(=S)N/N=C(\\C)c1ccco1", "> 100 µM (inactive)"],
  ["CC(=O)NNc1ncc(C(=O)/C=C/c2ccccc2C)s1", "> 100 µM (inactive)"]
]}

### Prompt Determine from records and report GI50 for BrC(/C=N/Nc1nnc(-c2ccccc2)c(-c2ccccc2)n1)C(Br)c1ccccc1 (stereo not drawn)
### Response 38.5 µM (inactive)

### Prompt Determine from records and report GI50 for Oc1ccccc1-n1nc2ccc3nonc3c2n1
### Response > 100 µM (inactive)

### Prompt Determine from records and report GI50 for COc1cc(/C=C(\NC(=O)c2ccccc2)c2nc3c(O)nc(S)nc3[nH]2)cc(OC)c1OC
### Response > 100 µM (inactive)

### Prompt Determine from records and report GI50 for CN(C)/N=C(/CC(O)(C(F)(F)F)C(F)(F)F)c1ccc([N+](=O)[O-])cc1
### Response > 100 µM (inactive)

### Prompt Determine from records and report GI50 for CCOC(=O)C1CCCCN1C(=O)Cc1c[nH]c2ccccc12 (stereo not drawn)
### Response 42.4 µM (inactive)

* * *

System: COLO 205
Test: NCI tumour cell line growth inhibition, 48 h
Calls of active or inactive are those of the source. No stated cut-off is given here; in the data, active = GI50 up to about 1.1 µM and inactive = higher.
Reported property: GI50

Worked examples follow.
{"columns": ["Molecule", "Measurement"],
 "data": [
  ["C/C=C1\\C(=O)O[C@H]2C/C(C)=C/CC/C(C)=C/CC[C@@]3(C)O[C@@H]3C[C@@H]12", "> 100 µM (inactive)"],
  ["COc1ccc([C@H]2[C@H](C)C3=Nc4ccccc4CN32)cc1", "45.1 µM (inactive)"],
  ["CC(=O)Nc1ccc(S(=O)(=O)Nc2cnc3ccccc3n2)cc1", "> 100 µM (inactive)"]
]}

### Prompt Determine from records and report GI50 for Cc1ccc(S(=O)(=O)N2CCN(S(=O)(=O)c3ccc(C)cc3)CCN(S(=O)(=O)c3ccc(C)cc3)Cc3cc(Br)c(Br)cc3CN(S(=O)(=O)c3ccc(C)cc3)CC2)cc1
### Response > 100 µM (inactive)

### Prompt Determine from records and report GI50 for C1CN2CCO[SiH](O1)OCC2
### Response > 100 µM (inactive)

* * *

Some compounds, each annotated with its measured GI50.
Test system: LOX IMVI
Test: NCI tumour cell line growth inhibition, 48 h
Activity calls are given as the source filed them. Cut-off read from the data, not from the text of the source: active = GI50 up to about 1.1 µM and inactive = higher.

Worked examples follow.
{"columns": ["Compound", "GI50"],
 "data": [
  ["CCNCC(O)COc1ccc2c(c1)[n+]([O-])nc(N)[n+]2[O-] (centres undefined)", "14.3 µM (inactive)"],
  ["CC(=O)N[C@@H](Cc1ccc(O)cn1)C(=O)NCc1cccc(Cl)c1", "> 100 µM (inactive)"],
  ["C[N+](C)(C)CC1CCCCCCCCCCC1=O (centres undefined)", "> 100 µM (inactive)"],
  ["Cc1ccc(/N=N/c2cc(=O)[nH]c(=O)[nH]2)cc1C", "1.71 µM (inactive)"],
  ["CC12CCC(C(=O)OC1=O)C(C)(C)O2 (centres undefined)", "> 100 µM (inactive)"],
  ["O=C1C[S+]([O-])C23c4cc5ccccc5n4CCC2CCCN13 (centres undefined)", "> 100 µM (inactive)"],
  ["COC(=O)C1(SC)C2CCC3C2CCC31 (centres undefined)", "> 100 µM (inactive)"],
  ["O=C1Sc2ccccc2C(=O)N2CSCC12 (centres undefined)", "> 100 µM (inactive)"]
]}

Turning to the following compound.
### Prompt Determine from records and report GI50 for O=C1C=C(O)c2nc(O)ccc2C1=O
### Response > 100 µM (inactive)

* * *

Some compounds, each annotated with its measured GI50.
Test system: BT-549
Test: NCI tumour cell line growth inhibition, 48 h
Active and inactive are the calls of the source. Cut-off read from the data, not from the text of the source: active = GI50 up to about 1.1 µM and inactive = higher.

### Prompt Determine from records and report GI50 for CC(=O)NNc1nc(C)c(C(=O)/C=C/C=C/c2ccccc2)s1
### Response > 100 µM (inactive)

### Prompt Determine from records and report GI50 for CCN(CC)c1ccc2cc(C(N)=O)c(=N)oc2c1
### Response 52.5 µM (inactive)

### Prompt Determine from records and report GI50 for O=c1c(C(c2ccc3ccccc3c2)c2c(O)oc3ccccc3c2=O)c(O)oc2ccccc12
### Response 24.8 µM (inactive)

### Prompt Determine from records and report GI50 for Oc1[nH]c(Nc2cccc(Br)c2)nc2ncnc1-2
### Response 82.8 µM (inactive)

### Prompt Determine from records and report GI50 for CC1(C)OC[C@@H](C[C@H](O)COCc2ccccc2)O1
### Response > 100 µM (inactive)

### Prompt Determine from records and report GI50 for C/N=C(N)/N=C(\N)Nc1cc2ccccc2c2ccccc12
### Response 15.1 µM (inactive)
